System: DLD-1-S611R
run.description: Proliferation/colony formation assay
Format: cell-based, human
setup.conditions: read-out: median IC50, three independent experiments
reported.metric: IC50

>>> print(df.to_string())
                            molecule_smiles     result
0  Cc1cc(N2CCOCC2)ccc1Nc1nc(NC2CCCCC2)c2[nH]cnc2n1  > 2000 nM

----------
IC50 by entry:
Tested on: HCT-116, DLD-1 and U2OS
Format: cell-based, human
setup.conditions: read-out: IC50 (cell viability); three cancer cell lines HCT-116, DLD-1 and U2OS; Supplementary Figures 2a-c
reported.metric: IC50

                            molecule_smiles  reported_metric        result
0  Cc1cc(N2CCOCC2)ccc1Nc1nc(NC2CCCCC2)c2[nH]cnc2n1             IC50  63 to 153 nM
1  CCc1cccc(CC)c1NC(=O)c1nn(C)c2c1CCc1cnc(Nc3ccc(C(=O)NC4CCN(C)CC4)cc3OC(F)(F)F)nc1-2             IC50      > 150 nM
